- system.tested: Human PKMYT1 (Homo sapiens, UniProt Q99640)
- Construct: Human PKMYT1 75-362 was cloned as a TEV cleavable 6xHis fusion; 6xHis (TEV cleavable) (cleaved yes); made in house; host or cells: bacterial cells
- Sequence (Q99640 75-362): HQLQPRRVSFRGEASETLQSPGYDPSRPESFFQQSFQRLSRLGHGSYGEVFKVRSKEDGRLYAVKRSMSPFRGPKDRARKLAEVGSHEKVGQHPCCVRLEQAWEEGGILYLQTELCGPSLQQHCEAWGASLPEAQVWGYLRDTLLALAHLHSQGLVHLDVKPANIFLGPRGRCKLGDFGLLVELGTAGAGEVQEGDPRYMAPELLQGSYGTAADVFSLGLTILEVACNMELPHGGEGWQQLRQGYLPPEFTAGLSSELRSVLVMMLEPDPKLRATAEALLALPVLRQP
- measurement.notes: PKMYT1 biochemical ADP-Glo enzymatic assay
- measurement.conditions: ADP-Glo; 15 nM PKMYT1 kinase domain, 500 µM ATP, 60 minutes at 26° C.; banded
pIC50: −log10 of the molar value. Counter-ions that a name gives are not always drawn.
measurement.name: pIC50

> print(dat)
                                    compound  measurement.name           val
 1  Cc1ccc(O)c(C)c1NC(=O)c1cnc(Nc2cc3ccc(Cl)cn3n2)s1             pIC50  6.00 to 7.30
 2  Cc1ccc(O)c(C)c1NC(=O)c1cnc(Nc2ccn([C@@H]3CCN(C(=O)Cc4ccccc4)C3)n2)s1             pIC50  6.00 to 7.30
 3  COCCn1nc(Nc2ncc(C(=O)Nc3c(C)ccc(O)c3C)s2)cc1C             pIC50  6.00 to 7.30
 4  Cc1ccc(O)c(C)c1NC(=O)c1cnc(Nc2ccn(CC(=O)O)n2)s1             pIC50        > 7.30
 5  COc1ccc(CC(=O)N2CC[C@@H](n3ccc(Nc4ncc(C(=O)Nc5c(C)ccc(O)c5C)s4)n3)C2)cc1             pIC50  6.00 to 7.30
 6  Cc1ccc(NS(=O)(=O)C(C)(C)C)nc1Nc1ncc(C(=O)Nc2c(C)ccc(O)c2C)s1.Cl [BAA-335, hydrochloride]             pIC50        > 7.30
 7    Cc1ccc(O)c(C)c1NC(=O)c1cnc(NCC(N)=O)s1             pIC50  4.96 to 6.00
 8  Cc1ccc(O)c(C)c1NC(=O)c1cnc(Nc2ccn(C3CCCCC3)n2)s1             pIC50        > 7.30
 9  Cn1ccc(Nc2ncc(C(=O)Nc3c(F)ccc(O)c3F)s2)n1             pIC50  6.00 to 7.30
10  Cc1ccc(O)c(C)c1NC(=O)c1cnc(NC2CCN(S(C)(=O)=O)CC2)s1             pIC50  4.96 to 6.00
11  CCN(c1ccc(F)cc1)c1ccc(Nc2ncc(C(=O)Nc3c(C)ccc(O)c3C)s2)nc1             pIC50  4.96 to 6.00
12  Cc1cn(-c2cn(C)nc2C)nc1Nc1ncc(C(=O)Nc2c(C)ccc(O)c2C)s1             pIC50        > 7.30
13  CCN(CC)C(=O)N1CC[C@@H](n2ccc(Nc3ncc(C(=O)Nc4c(C)ccc(O)c4C)s3)n2)C1             pIC50  6.00 to 7.30
14  Cc1ccc(O)c(C)c1NC(=O)c1cnc(NCC2CCN(C(=O)CN3CCCC3)CC2)s1             pIC50  4.96 to 6.00
15  Cc1ccc(O)c(C)c1NC(=O)c1cnc(Nc2ccn(C3CCNCC3)n2)s1 [BAA-055, (hydrochloride)]             pIC50  6.00 to 7.30
16  Cc1ccc(O)c(C)c1NC(=O)c1cnc(Nc2cc(C)n(C3CCCC3)n2)s1             pIC50        > 7.30
17  Cc1ccc(O)c(C)c1NC(=O)c1cnc(Nc2ccn(CC(=O)NCCN3CCN(C(=O)OC(C)(C)C)CC3)n2)s1             pIC50  6.00 to 7.30

Hello, the source for this data is patent US20260297042A1, in case you need it.
